# Tested Target: UniProt:Q5BJF2
# Sequence (Q5BJF2 whole entry): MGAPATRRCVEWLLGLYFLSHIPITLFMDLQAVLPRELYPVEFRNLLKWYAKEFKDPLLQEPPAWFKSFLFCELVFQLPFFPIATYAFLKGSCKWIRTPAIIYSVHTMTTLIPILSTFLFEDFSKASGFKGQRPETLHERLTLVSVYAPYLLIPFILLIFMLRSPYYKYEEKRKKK
# Assay Explanation: Radioligand competition binding with [3H]-DTG at the S2R
# Condition: competition with [3H]-DTG

Compound Smiles | Pseudo-Hill slope at the S2R
CN1CCN(CCc2ccc(Cl)c(Cl)c2)CC1 | near unity
c1ccc(CCCCN2CCC(c3ccccc3)CC2)cc1 | near unity
CCCN(CCC)CCc1ccc(OC)c(OCCc2ccccc2)c1 | near unity
O=C(OCCN1CCOCC1)C1(c2ccccc2)CCCCC1 | near unity

----------
# Tested Target: UniProt:Q99720
# Sequence (Q99720 whole entry): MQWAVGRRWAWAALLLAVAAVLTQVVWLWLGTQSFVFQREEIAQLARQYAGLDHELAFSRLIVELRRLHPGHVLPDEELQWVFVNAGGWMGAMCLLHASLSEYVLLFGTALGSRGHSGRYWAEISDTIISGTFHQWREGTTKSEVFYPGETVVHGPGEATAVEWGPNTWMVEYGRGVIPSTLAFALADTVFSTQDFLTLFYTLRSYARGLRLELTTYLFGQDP
# Assay Explanation: Radioligand competition binding with [3H]-
# Condition: competition with [3H]-(+)-pentazocine
In this section, each of the molecules is paired with its reported Pseudo-Hill slope at the S1R.
Reply: number alone, nothing else.

Molecule | Pseudo-Hill slope at the S1R
O=C(OCCN1CCOCC1)C1(c2ccccc2)CCCCC1 [PRE-084] | −0.98

Quick check: Pseudo-Hill slope at the S1R of CCCN(CCC)CCc1ccc(OC)c(OCCc2ccccc2)c1 [NE-100] ?
−3.1

Quick check: Pseudo-Hill slope at the S1R of c1ccc(CCCCN2CCC(c3ccccc3)CC2)cc1 [4-PPBP] ?
−3.1
